Values from patent US20240018502A1

- target-entity: plasma purified human complement protein C3 (human) (UniProt P01024)
- Sequence (P01024 23-667, chain 1 of 2): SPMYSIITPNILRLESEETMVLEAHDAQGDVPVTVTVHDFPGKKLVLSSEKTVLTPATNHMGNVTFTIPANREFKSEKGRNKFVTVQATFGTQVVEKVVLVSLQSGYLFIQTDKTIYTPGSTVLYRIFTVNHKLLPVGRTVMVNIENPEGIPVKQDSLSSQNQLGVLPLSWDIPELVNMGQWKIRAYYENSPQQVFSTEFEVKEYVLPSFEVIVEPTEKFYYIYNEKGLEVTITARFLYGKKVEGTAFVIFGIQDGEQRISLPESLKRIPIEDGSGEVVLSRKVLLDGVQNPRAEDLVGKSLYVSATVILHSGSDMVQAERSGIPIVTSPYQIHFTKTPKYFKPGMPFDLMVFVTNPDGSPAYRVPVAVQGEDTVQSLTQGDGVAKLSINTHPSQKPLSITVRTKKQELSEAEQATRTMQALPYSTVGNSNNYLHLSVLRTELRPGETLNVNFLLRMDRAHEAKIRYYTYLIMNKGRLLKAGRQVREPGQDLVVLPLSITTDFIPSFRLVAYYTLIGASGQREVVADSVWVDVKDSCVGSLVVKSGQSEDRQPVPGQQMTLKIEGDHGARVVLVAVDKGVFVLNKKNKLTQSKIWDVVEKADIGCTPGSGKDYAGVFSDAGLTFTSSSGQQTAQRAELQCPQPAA
- Sequence (P01024 672-1663, chain 2 of 2): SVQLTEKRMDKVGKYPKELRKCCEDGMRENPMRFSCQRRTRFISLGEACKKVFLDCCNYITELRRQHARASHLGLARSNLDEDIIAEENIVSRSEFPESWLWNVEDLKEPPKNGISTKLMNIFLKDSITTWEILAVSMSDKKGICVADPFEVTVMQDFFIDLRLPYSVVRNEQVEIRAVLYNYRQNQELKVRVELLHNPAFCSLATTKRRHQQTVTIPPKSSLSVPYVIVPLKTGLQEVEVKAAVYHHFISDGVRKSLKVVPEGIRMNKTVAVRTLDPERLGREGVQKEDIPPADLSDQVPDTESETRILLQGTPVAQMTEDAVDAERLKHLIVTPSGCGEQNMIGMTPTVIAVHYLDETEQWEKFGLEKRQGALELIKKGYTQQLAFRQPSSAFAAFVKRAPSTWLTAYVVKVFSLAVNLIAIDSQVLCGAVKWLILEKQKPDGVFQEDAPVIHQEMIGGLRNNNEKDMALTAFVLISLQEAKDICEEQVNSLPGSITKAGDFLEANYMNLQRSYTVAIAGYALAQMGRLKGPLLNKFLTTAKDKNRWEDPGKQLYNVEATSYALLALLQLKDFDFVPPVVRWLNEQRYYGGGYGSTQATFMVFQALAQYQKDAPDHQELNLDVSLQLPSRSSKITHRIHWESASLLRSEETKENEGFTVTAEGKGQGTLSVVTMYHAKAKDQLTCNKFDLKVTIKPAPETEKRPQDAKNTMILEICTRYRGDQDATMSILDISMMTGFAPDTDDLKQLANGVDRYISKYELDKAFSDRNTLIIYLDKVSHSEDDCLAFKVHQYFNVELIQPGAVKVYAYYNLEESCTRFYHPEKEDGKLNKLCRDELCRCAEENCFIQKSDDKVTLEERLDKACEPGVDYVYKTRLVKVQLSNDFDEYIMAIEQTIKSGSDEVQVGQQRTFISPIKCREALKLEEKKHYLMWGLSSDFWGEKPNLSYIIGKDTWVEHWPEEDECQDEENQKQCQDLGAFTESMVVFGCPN
- method: cell-based or functional assay

[
  {
    "binder": "MTSP-1 protease domain I41S/F97L/F99L/C122S/Q192S (enzyme) VVGGTDADEGEWPWQVSLHALGQGHSCGASLISPNWLVSAAHCYIDDRGFRYSDPTQWTAFLGLHDQSQRSAPGVQERRLKRIISHPFFNDLTLDYDIALLELEKPAEYSSMVRPISLPDASHVFPAGKAIWVTGWGHTQYGGTGALILQKGEIRVINQTTCENLLPQQITPRMMCVGFLSGGVDSCSGDSGGPLSSVEADGRIFQAGVVSWGDGCAQRNKPGVYTRLPLFRDWIKENTGV",
    "EC50 hC3 cleavage (nM)": 19.1
  },
  {
    "binder": "MTSP-1 protease domain Q38S/I41S/Y60gW/F99L/C122S/G151D/Q192T (enzyme) VVGGTDADEGEWPWQVSLHALGSGHSCGASLISPNWLVSAAHCYIDDRGFRWSDPTQWTAFLGLHDQSQRSAPGVQERRLKRIISHPFFNDFTLDYDIALLELEKPAEYSSMVRPISLPDASHVFPAGKAIWVTGWGHTQYGGTDALILQKGEIRVINQTTCENLLPQQITPRMMCVGFLSGGVDSCTGDSGGPLSSVEADGRIFQAGVVSWGDGCAQRNKPGVYTRLPLFRDWIKENTGV",
    "EC50 hC3 cleavage (nM)": 15
  },
  {
    "binder": "MTSP-1 protease domain Q38Y/D60bT/F60eR/Y60gW/D96M/F97N/T98G/F99L/C122S/G151N/Q175L/Q192D (enzyme) VVGGTDADEGEWPWQVSLHALGYGHICGASLISPNWLVSAAHCYIDTRGRRWSDPTQWTAFLGLHDQSQRSAPGVQERRLKRIISHPFFNMNGLDYDIALLELEKPAEYSSMVRPISLPDASHVFPAGKAIWVTGWGHTQYGGTNALILQKGEIRVINQTTCENLLPQLITPRMMCVGFLSGGVDSCDGDSGGPLSSVEADGRIFQAGVVSWGDGCAQRNKPGVYTRLPLFRDWIKENTGV",
    "EC50 hC3 cleavage (nM)": 47.7
  }
]
